Biological target: SARS-CoV-2 Receptor Binding Domain (RBD) protein (SARS-CoV-2)
Assay: SPR (Carterra LSA), scFv captured via anti-V5, RBD as analyte, 1:1 fit
Measured Endpoint: koff (s⁻¹)
# number only, unit s⁻¹ dropped from output

As a guide, the following entries are already answered.
COVID19_P11_G03 (scFv, V domains shown) VH: QVQLVQSGAEVKKPGASVKVSCKASGYTFTSYEINWVRQAPGQGLEWMGIINPSDGSSTYAQKFQGRVTMTRDTSTSTVYMELSSLRSEDTAVYYCARDRGYSYDHDQIYYYYGMDVWGQGTTVTVSS VL: DIQMTQSPSSLSASVGDRVTITCRVSQGISSYLNWYQQKPGKAPKLLIYAASILQSGVPSRFSGSGSGTDFTLTISSLQPEDFATYYCQQGYSTPFTFGPGTKVDIKR	0.00064
COVID19_P24_G09 (scFv, V domains shown) VH: QVQLVQSGAEVKKPGASVKVSCKASGYTFTRYYIHWVRQAPGQGLEWMGIINPSGGSTTYAQKFQGRVTMTRDTSTSTVYMELSSLRSEDTAVYYCAKGAPHDYIWGSYRPDAFDIWGQGTMVTVSS VL: DIQMTQSPSSLSASVGDRVTITCRASENIDSWLAWYQQKPGKAPKLLIYEASTLESGVPSRFSGSGSGTDFTLTISSLQPEDFATYYCHQYLSSPETFGQGTKVEIKR	0.000512
COVID19_P23_G10 (scFv, V domains shown) VH: QVQLVQSGAEVKKPGSSVKVSCKASGYTFTDYYIQWVRQAPGQGLEWMGWINPNSGGPNYAQKFQGRVTITADESTSTAYMELSSLRSEDTAVYYCARVDYGDYGRLEDYWGQGTLVTVSS VL: DIQMTQSPSSLSASVGDRVTITCRASQSIYSWLAWYQQKPGKAPKLLIYDASSLESGVPSRFSGSGSGTDFTLTISSLQPEDFATYYCQQLNSYPYTFGQGTKVEIKR	5.7e-05
COVID19_P24_H06 (scFv, V domains shown) VH: EVQLLESGGGLVQPGGSLRLSCAASGFSFSNYDMHWVRQAPGKGLEWVAVISYDGGFKLYADSVKGRFTISRDNAKNSLYLRMNSLRSEDTAVYYCARGQVRGSGPQVVVMDVWGKGTTVTVSS VL: DIQMTQSPSSLSASVGDRVTITCQASQGIRNDLGWYQQKPGKAPKLLIYDASRLQSGVPSRFSGSGSGTDFTLTISSLQPEDFATYYCQQYYSTPPLTFGQGTKVEIKR	5.7e-05

Next:
Name the recorded koff for COVID19_P24_A11 (scFv, V domains shown) VH: QVQLVQSGAEVKKPGASVKVSCKASGYTFTENEMHWVRQAPGQGLEWMGIINPSGGSTSYAQKFQGRVTMTRDTSTSTVYMELSSLRSEDTAVYYCARDLMDIVVVPWLGGMDVWGQGTTVTVSS VL: DIQMTQSPSSLSASVGDRVTITCRASQAITNYLAWYQQKPGKAPKLLIYAASSLQSGVPSRFSGSGSGTDFTLTISSLQPEDFATYYCQQYYSYPPTFGQGTKLEIKR .
0.000308
